Listed here are compounds together with their documented IC50.
# test-target: hCA II (Homo sapiens, UniProt P00918)
measured-attribute: IC50 (nM)

Oc1ccc(Cc2cc(O)c(O)cc2Br)c(Br)c1 [Compound 18] :: 11.4
COc1ccc(Cc2cc(OC)c(OC)cc2Br)c(Br)c1 [Compound 13] :: 21
Oc1ccc(O)c(Cc2cc(O)c(O)cc2Br)c1 [Compound 21] :: 7.45
COc1ccc(OC)c(Cc2cc(OC)c(OC)cc2Br)c1 [Compound 16] :: 15.8
Oc1cc(Br)c(Cc2cc(O)c(Br)cc2O)cc1O [Compound 20] :: 14.1
COc1cc(Cc2cc(OC)c(OC)cc2Br)c(OC)cc1Br [Compound 15] :: 15.1
COc1cc(Br)c(Cc2ccc(OC)c(OC)c2OC)cc1OC [Compound 17] :: 23.1

====

# test-target: hCA I (Homo sapiens, UniProt P00915)
# Sequence (P00915 whole entry): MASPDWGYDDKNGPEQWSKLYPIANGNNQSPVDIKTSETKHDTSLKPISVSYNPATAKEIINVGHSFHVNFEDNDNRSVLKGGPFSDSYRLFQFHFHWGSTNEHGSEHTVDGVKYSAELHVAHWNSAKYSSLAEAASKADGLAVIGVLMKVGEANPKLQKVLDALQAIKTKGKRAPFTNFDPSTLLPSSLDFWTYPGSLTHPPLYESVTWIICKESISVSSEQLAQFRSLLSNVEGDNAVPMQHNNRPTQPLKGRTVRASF
measured-attribute: Ki (µM)

COc1cc(Cc2cc(OC)c(OC)cc2Br)c(OC)cc1Br [Compound 15] :: 0.00935
Oc1ccc(Cc2cc(O)c(O)cc2Br)c(Br)c1 [Compound 18] :: 0.0125
COc1ccc(OC)c(Cc2cc(OC)c(OC)cc2Br)c1 [Compound 16] :: 0.0128
Oc1ccc(O)c(Cc2cc(O)c(O)cc2Br)c1 [Compound 21] :: 0.011
COc1cc(Br)c(Cc2ccc(OC)c(OC)c2OC)cc1OC [Compound 17] :: 0.0188
COc1ccc(Cc2cc(OC)c(OC)cc2Br)c(Br)c1 [Compound 13] :: 0.0257
Oc1cc(Br)c(Cc2cc(O)c(Br)cc2O)cc1O [Compound 20] :: 0.0134

====

# test-target: hCA II (Homo sapiens, UniProt P00918)
Please use Criterion met for Ki under 6 nM and Criterion not met for everything else, ties included.

Oc1ccc(Cc2cc(O)c(O)cc2Br)c(Br)c1 [Compound 18] :: Criterion not met
COc1ccc(OC)c(Cc2cc(OC)c(OC)cc2Br)c1 [Compound 16] :: Criterion not met
COc1ccc(Cc2cc(OC)c(OC)cc2Br)c(Br)c1 [Compound 13] :: Criterion met
COc1cc(Br)c(Cc2ccc(OC)c(OC)c2OC)cc1OC [Compound 17] :: Criterion not met
COc1cc(Cc2cc(OC)c(OC)cc2Br)c(OC)cc1Br [Compound 15] :: Criterion met
Oc1ccc(O)c(Cc2cc(O)c(O)cc2Br)c1 [Compound 21] :: Criterion met
Oc1cc(Br)c(Cc2cc(O)c(Br)cc2O)cc1O [Compound 20] :: Criterion not met
